meta.source: patent US6613718B2

Please provide measured SORHA phytotoxicity rating (0-100 scale) for the entries that follow.
tested on: johnsongrass (Sorghum halepense, SORHA); experiment: Post-emerge greenhouse herbicide activity screening, phytotoxicity rating; format: in vivo; conditions: 125 g ai/ha, 14 days after application
Give bare numbers.

Worked set:
Cn1nc(-c2cc(Oc3ncccn3)c(Cl)cc2F)c(Cl)c1[S+]([O-])C(F)F (centres unmarked) [Compound 5-1]; 75
Cn1c(=S)n(C)c(=O)n(-c2cc(Oc3ccccc3[N+](=O)[O-])c(Cl)cc2F)c1=O [Compound 2-17]; 0
Cn1c(=S)n(C)c(=O)n(-c2cc(Oc3ccccc3)c(Cl)cc2F)c1=O [Compound 2-16]; 0
Cn1c(=S)n(C)c(=O)n(-c2cc(Oc3ncccn3)c(Cl)cc2F)c1=O [Compound 2-1]; 60
Cn1nc(-c2cc(Oc3ncccn3)c(Cl)cc2F)c(=O)n(C)c1=S [Compound 4-1]; 50
Cn1c(C(F)(F)F)cc(=O)n(-c2cc(Oc3ccccc3)c(Cl)cc2F)c1=S [Compound 1-47]; 0
N#Cc1c(-c2cc(Oc3ncccn3)c(Cl)cc2F)nn2c1CCCC2 [Compound 6-17]; 0

Query string: State the recorded SORHA phytotoxicity rating (0-100 scale) for this entry: Cn1c(C(F)(F)F)cc(=O)n(-c2cc(Oc3ncccc3[N+](=O)[O-])c(Cl)cc2F)c1=S [Compound 1-9]
Result string: 50

###

Please provide measured SOY crop damage, phytotoxicity rating (0-100 scale) for the entries that follow.
test system: soybean (Glycine max L., var. Pella 86, SOY); assay: Post-emerge greenhouse screening, crop safety (phytotoxicity rating); type: in vivo; conditions: 250 g ai/ha, 14 days after application
Numbers only.

Worked set:
Cn1c(=S)n(C)c(=O)n(-c2cc(Oc3ccccc3)c(Cl)cc2F)c1=O; 0
Cn1c(C(F)(F)F)cc(=O)n(-c2cc(Oc3ncccc3[N+](=O)[O-])c(Cl)cc2F)c1=S; 80
Cn1c(C(F)(F)F)cc(=O)n(-c2cc(Oc3ncccn3)c(Cl)cc2F)c1=S; 100
Cn1c(C(F)(F)F)cc(=O)n(-c2cc(Oc3ccccc3)c(Cl)cc2F)c1=S; 40

# map each compound to its SOY crop damage, phytotoxicity rating (0-100 scale)
1. Cn1c(C(F)(F)F)cc(=O)n(-c2cc(Oc3ncccc3C(F)(F)F)c(Cl)cc2F)c1=S
2. Cn1c(=S)n(C)c(=O)n(-c2cc(Oc3ncccn3)c(Cl)cc2F)c1=O
3. Cn1c(C(F)(F)F)cc(=O)n(-c2cc(Oc3ccccc3O)c(C#N)cc2F)c1=S
4. COc1ccccc1Oc1cc(-n2c(=O)cc(C(F)(F)F)n(C)c2=S)c(F)cc1C#N
5. Cn1nc(-c2cc(Oc3ncccn3)c(Cl)cc2F)c(=O)n(C)c1=S
6. O=[N+]([O-])c1ccccc1Oc1cc(-c2nn3c(c2Cl)CCCC3)c(F)cc1Cl
7. Fc1cc(Cl)c(Oc2ncccn2)cc1-c1nn2c(c1Br)CCCC2

Result string:
10
65
65
75
50
40
99

# map each compound to its SOY crop damage, phytotoxicity rating (0-100 scale)
1. Cn1c(=S)n(C)c(=O)n(-c2cc(Oc3ccccc3N)c(Cl)cc2F)c1=O
2. Cn1c(C(F)(F)F)cc(=O)n(-c2cc(Oc3ccccc3N)c(Cl)cc2F)c1=S
3. Cn1nc(-c2cc(Oc3ncccn3)c(Cl)cc2F)c(Cl)c1[S+]([O-])C(F)F (stereo not shown)
4. COc1ccc(Oc2cc(-n3c(=O)cc(C(F)(F)F)n(C)c3=S)c(F)cc2C#N)cc1
5. Cn1c(C(F)(F)F)cc(=O)n(-c2cc(Oc3ccccc3[N+](=O)[O-])c(Cl)cc2F)c1=S

Result string:
1: 0; 2: 0; 3: 55; 4: 0; 5: 15

###

Test system: large crabgrass (Digitaria sanguinalis, DIGSA)
Experiment: Post-emerge greenhouse herbicide activity screening, phytotoxicity rating
Type: in vivo
Conditions: 250 g ai/ha, 14 days after application
Method: A standard greenhouse herbicide activity screening system was used to evaluate the herbicidal efficacy and crop safety of these test compounds. […] At 14 days after application of the test materials, phytotoxicity ratings were recorded. […]
Please provide measured DIGSA phytotoxicity rating (0-100 scale) for the entries that follow.
Numbers only.

Worked set:
O=[N+]([O-])c1ccccc1Oc1cc(-c2nn3c(c2Cl)CCCC3)c(F)cc1Cl; 50
COc1ccccc1Oc1cc(-n2c(=O)cc(C(F)(F)F)n(C)c2=S)c(F)cc1C#N; 60
Cn1c(=S)n(C)c(=O)n(-c2cc(Oc3ncccn3)c(Cl)cc2F)c1=O; 55
Cn1c(=S)n(C)c(=O)n(-c2cc(Oc3ccccc3)c(Cl)cc2F)c1=O; 0
Cn1nc(-c2cc(Oc3ncccn3)c(Cl)cc2F)c(Cl)c1[S+]([O-])C(F)F (stereo not drawn); 55
Cn1nc(-c2cc(Oc3ncccn3)c(Cl)cc2F)c(=O)n(C)c1=S; 60
Cn1c(C(F)(F)F)cc(=O)n(-c2cc(Oc3ccccc3C#N)c(Cl)cc2F)c1=S; 0
Cn1c(C(F)(F)F)cc(=O)n(-c2cc(Oc3ccccc3)c(C#N)cc2F)c1=S; 30

# map each molecule to its DIGSA phytotoxicity rating (0-100 scale)
1. Cn1c(=S)n(C)c(=O)n(-c2cc(Oc3ccccc3[N+](=O)[O-])c(Cl)cc2F)c1=O
2. N#Cc1c(-c2cc(Oc3ncccn3)c(Cl)cc2F)nn2c1CCCC2
3. Cn1c(C(F)(F)F)cc(=O)n(-c2cc(Oc3ncccn3)c(Cl)cc2F)c1=S
4. COc1ccc(Oc2cc(-n3c(=O)cc(C(F)(F)F)n(C)c3=S)c(F)cc2C#N)cc1
5. Cn1c(C(F)(F)F)cc(=O)n(-c2cc(Oc3ncccc3C(F)(F)F)c(Cl)cc2F)c1=S
6. Cn1c(C(F)(F)F)cc(=O)n(-c2cc(Oc3ccccc3)c(Cl)cc2F)c1=S

Result string:
[35, 25, 90, 0, 0, 35]

# map each molecule to its DIGSA phytotoxicity rating (0-100 scale)
1. Cn1c(C(F)(F)F)cc(=O)n(-c2cc(Oc3ccccc3N)c(Cl)cc2F)c1=S
2. Fc1cc(Cl)c(Oc2ncccn2)cc1-c1nn2c(c1Br)CCCC2
3. Cn1c(C(F)(F)F)cc(=O)n(-c2cc(Oc3ccccc3O)c(C#N)cc2F)c1=S
4. Cn1c(=S)n(C)c(=O)n(-c2cc(Oc3ccccc3N)c(Cl)cc2F)c1=O
5. Cn1c(C(F)(F)F)cc(=O)n(-c2cc(Oc3ccccc3[N+](=O)[O-])c(Cl)cc2F)c1=S
6. Cn1c(C(F)(F)F)cc(=O)n(-c2cc(Oc3ncccc3[N+](=O)[O-])c(Cl)cc2F)c1=S
7. Fc1cc(Cl)c(Oc2ncccn2)cc1-c1nn2c(c1Cl)CCCC2

Result string:
50
80
30
0
0
60
98

###

tested on: large crabgrass (Digitaria sanguinalis, DIGSA); assay: Post-emerge greenhouse herbicide activity screening, phytotoxicity rating; type: in vivo; conditions: 125 g ai/ha, 14 days after application
Please provide measured DIGSA phytotoxicity rating (0-100 scale) for the entries that follow.

Worked set:
Cn1nc(-c2cc(Oc3ncccn3)c(Cl)cc2F)c(Cl)c1[S+]([O-])C(F)F (centres unmarked); 50
COc1ccc(Oc2cc(-n3c(=O)cc(C(F)(F)F)n(C)c3=S)c(F)cc2C#N)cc1; 0
Cn1c(C(F)(F)F)cc(=O)n(-c2cc(Oc3ccccc3N)c(Cl)cc2F)c1=S; 25

# map each molecule to its DIGSA phytotoxicity rating (0-100 scale)
1. Cn1c(=S)n(C)c(=O)n(-c2cc(Oc3ccccc3[N+](=O)[O-])c(Cl)cc2F)c1=O
2. Cn1c(C(F)(F)F)cc(=O)n(-c2cc(Oc3ccccc3)c(Cl)cc2F)c1=S
3. Cn1c(C(F)(F)F)cc(=O)n(-c2cc(Oc3ncccc3C(F)(F)F)c(Cl)cc2F)c1=S

Result string:
1. 0
2. 10
3. 0

# map each molecule to its DIGSA phytotoxicity rating (0-100 scale)
1. Cn1c(C(F)(F)F)cc(=O)n(-c2cc(Oc3ccccc3O)c(C#N)cc2F)c1=S
2. Cn1c(=S)n(C)c(=O)n(-c2cc(Oc3ccccc3)c(Cl)cc2F)c1=O

Result string:
1: 15; 2: 0

###

tested on: redroot pigweed (Amaranthus retroflexus, AMARE); test: Post-emerge greenhouse herbicide activity screening, phytotoxicity rating; assay type: in vivo; conditions: 125 g ai/ha, 14 days after application
Please provide measured AMARE phytotoxicity rating (0-100 scale) for the entries that follow.
Answers are plain numbers.

Cn1c(=S)n(C)c(=O)n(-c2cc(Oc3ccccc3N)c(Cl)cc2F)c1=O [Compound 2-18]; 80
N#Cc1c(-c2cc(Oc3ncccn3)c(Cl)cc2F)nn2c1CCCC2 [Compound 6-17]; 100
COc1ccccc1Oc1cc(-n2c(=O)cc(C(F)(F)F)n(C)c2=S)c(F)cc1C#N [Compound 1-71]; 100
Cn1nc(-c2cc(Oc3ncccn3)c(Cl)cc2F)c(=O)n(C)c1=S [Compound 4-1]; 100
Cn1c(C(F)(F)F)cc(=O)n(-c2cc(Oc3ccccc3)c(C#N)cc2F)c1=S [Compound 1-69]; 99
Fc1cc(Cl)c(Oc2ncccn2)cc1-c1nn2c(c1Cl)CCCC2 [Compound 6-1]; 100

# map each compound to its AMARE phytotoxicity rating (0-100 scale)
1. Cn1c(C(F)(F)F)cc(=O)n(-c2cc(Oc3ccccc3O)c(C#N)cc2F)c1=S [Compound 1-70]
2. Cn1c(=S)n(C)c(=O)n(-c2cc(Oc3ncccn3)c(Cl)cc2F)c1=O [Compound 2-1]

Result string:
1. 100
2. 100
